test-details: logP determination by HPLC (formic acid method)
Type: physicochemical
run-conditions: reversed-phase HPLC column (C18), pH 3.4, HPLC on reversed-phase column (C18), acidic range (pH 3.4), 55° C.; read-out: logP (HCOOH)
Would you please tag the item Met when its chromatographic logP is 2 or above, and Not met when it is below?

Check the entry `Cc1nc(-c2cccnc2)sc1-c1cccnc1` : does chromatographic logP equal or exceed 2?
Not met

====

test-details: logP determination by HPLC (formic acid method)
Type: physicochemical
run-conditions: reversed-phase HPLC column (C18), pH 3.4, HPLC on reversed-phase column (C18), acidic range (pH 3.4), 55° C.; read-out: logP (HCOOH)
# chromatographic logP per record follows

Solved cases below.
| molecule | test-readout | measured |
| --- | --- | --- |
| Cc1nc(-c2cccnc2)sc1-c1nc(C(=O)N2CCCO2)cs1 [compound 242] | chromatographic logP | 1.61 |
| CCOc1cc(OCC)nc(-n2ccc(-c3sc(-c4cccnc4)nc3C)n2)n1 [compound 79] | chromatographic logP | 3.94 |
| CON(C)C(=O)c1csc(-c2sc(-c3cccnc3)nc2C)n1 [compound 229] | chromatographic logP | 1.78 |
| Cc1cccc(-c2noc(-c3sc(-c4cccnc4)nc3C)n2)n1 [compound 139] | chromatographic logP | 2.61 |
| Cc1nc(-c2cccnc2)sc1-n1ccc(-c2ccccc2)n1 [compound 28] | chromatographic logP | 3.08 |

Can you look up the measured chromatographic logP of c1cnc(-c2nccc(-c3cnc(-c4cccnc4)s3)n2)nc1 [compound 88] for me?
1.05

Can you look up the measured chromatographic logP of Cc1nc(-c2cccnc2)sc1-c1ccnc(N(C)C)n1 [compound 194] for me?
2.15

Can you look up the measured chromatographic logP of Cc1nc(-c2cccnc2)sc1-c1ccn(-c2cnc(C(F)(F)F)nc2)n1 [compound 78] for me?
2.99

Can you look up the measured chromatographic logP of Cc1nc(-c2cccnc2)sc1-c1nnc(C(F)(F)F)s1 [compound 102] for me?
2.85

====

test-details: logP determination by HPLC (formic acid method)
Type: physicochemical
run-conditions: reversed-phase HPLC column (C18), pH 3.4, HPLC on reversed-phase column (C18), acidic range (pH 3.4), 55° C.; read-out: logP (HCOOH)
Would you please tag the item Fulfilled when its chromatographic logP is 3 or above, and Not fulfilled when it is below?

| molecule | qualitative-label |
| --- | --- |
| Clc1cccc(-c2cnc(-c3cccnc3)s2)n1 | Not fulfilled |
| Cn1nc(-c2cccnc2)cc1-c1cncc(C#N)c1 | Not fulfilled |
| Cc1nc(-c2cccnc2)sc1-n1ccc(-c2ccccn2)n1 | Not fulfilled |
| Cc1nc(-c2cccnc2)sc1-c1ccn(-c2ncccn2)n1 | Not fulfilled |
| Cc1nc(-c2cccnc2)sc1-n1ccc(-c2ccc(Cl)s2)n1 | Fulfilled |
| COc1cc(OC)nc(-c2nc(-c3sc(-c4cccnc4)nc3C)cs2)n1 | Fulfilled |

Check the entry `Cc1nc(-c2cccnc2)sc1-n1ccc(C(F)(F)C(F)(F)F)n1` : does chromatographic logP equal or exceed 3?
Fulfilled

Check the entry `Cc1nc(-c2cccnc2)sc1-c1cccc(S(C)(=O)=O)n1` : does chromatographic logP equal or exceed 3?
Not fulfilled

Check the entry COCC(C)NC(=O)n1ccc(-c2sc(-c3cccnc3)nc2C)n1 (centres unmarked) : does chromatographic logP equal or exceed 3?
Not fulfilled

Check the entry Cc1nc(-c2cccnc2)sc1-c1ccn(C(=O)NC(C)COC(C)C)n1 (centres unmarked) : does chromatographic logP equal or exceed 3?
Fulfilled

====

test-details: logP determination by HPLC (formic acid method)
Type: physicochemical
run-conditions: reversed-phase HPLC column (C18), pH 3.4, HPLC on reversed-phase column (C18), acidic range (pH 3.4), 55° C.; read-out: logP (HCOOH)
test-readout: chromatographic logP
Give the figure by itself; no unit, no explanation.

| structure-smiles | test-readout | measured |
| --- | --- | --- |
| Cc1nc(-c2cccnc2)sc1C1=NN(c2ncccn2)CCO1 | chromatographic logP | 1.56 |
| Cc1nc(-c2cccnc2)sc1-c1ccn(-c2ccccn2)n1 | chromatographic logP | 2.94 |
| c1cncc(-c2ncc(-c3cccc(C4OCCO4)n3)s2)c1 | chromatographic logP | 1.82 |
| c1cncc(-c2ncc(-c3cccc(C4OCCCO4)n3)s2)c1 | chromatographic logP | 1.99 |
| Cc1nc(-c2cccnc2)sc1-c1ccc(C(F)(F)F)nc1 | chromatographic logP | 2.72 |

Can you look up the measured chromatographic logP of `c1cnc(-c2cccc(-c3nnc(-c4cncnc4)s3)n2)nc1` for me?
1.39

Can you look up the measured chromatographic logP of `Cc1cc(=O)n(-c2nccc(-c3sc(-c4cccnc4)nc3C)n2)[nH]1` for me?
1.48

Can you look up the measured chromatographic logP of `Fc1cncc(-c2nnc(-c3cccc(-c4ncccn4)n3)s2)c1` for me?
1.91

Can you look up the measured chromatographic logP of `CCOCCCNC(=O)n1ccc(-c2sc(-c3cccnc3)nc2C)n1` for me?
2.46

====

test-details: logP determination by HPLC (formic acid method)
Type: physicochemical
run-conditions: HPLC on reversed-phase column (C18), acidic range (pH 3.4), 55° C.; read-out: logP (HCOOH)
test-readout: chromatographic logP
Give the figure by itself; no unit, no explanation.

Can you look up the measured chromatographic logP of `Cc1nc(-c2cccnc2)sc1-c1ccnc(C(F)(F)C(F)(F)C(F)(F)F)n1` for me?
3.84

====

test-details: logP determination by HPLC (formic acid method)
Format: physicochemical
run-conditions: reversed-phase HPLC column (C18), pH 3.4, HPLC on reversed-phase column (C18), acidic range (pH 3.4), 55° C.; read-out: logP (HCOOH)
test-readout: chromatographic logP
Give the figure by itself; no unit, no explanation.

Solved cases below.
| compound | measured |
| --- | --- |
| CCC(CC#N)NC(=O)n1ccc(-c2sc(-c3cccnc3)nc2C)n1 (stereo not shown) | 2.14 |
| c1cnc(-c2cccc(-c3cnc(-c4cccnc4)s3)n2)nc1 | 1.53 |
| Cc1nc(-c2cccnc2)sc1-c1nc(C(=O)NC(C)(C)C)cs1 | 2.93 |

Can you look up the measured chromatographic logP of `COC(OC)c1cccc(-c2cnc(-c3cccnc3)s2)n1` for me?
2.08

Can you look up the measured chromatographic logP of `Cc1nc(-c2cccnc2)sc1-c1cncc(-c2cc(C)n(C)n2)n1` for me?
1.86

Can you look up the measured chromatographic logP of `Cc1nc(-c2cccnc2)sc1-c1nc(-c2ccccn2)cs1` for me?
2.53

====

test-details: logP determination by HPLC (formic acid method)
Type: physicochemical
run-conditions: reversed-phase HPLC column (C18), pH 3.4, HPLC on reversed-phase column (C18), acidic range (pH 3.4), 55° C.; read-out: logP (HCOOH)
Would you please tag the item fulfilled when its chromatographic logP is 2 or above, and not fulfilled when it is below?

These recorded examples may help you get a feel for the data.
| compound | qualitative-label |
| --- | --- |
| Cc1nc(-c2cccnc2)sc1-c1ccnc(C(F)(F)Cl)n1 | fulfilled |
| Cc1nc(-c2cccnc2)sc1-c1nc(C(F)(F)F)no1 | fulfilled |
| CON(C)C(=O)c1cccc(-c2nnc(-c3cccnc3)s2)n1 | not fulfilled |
| CCCc1cccc(-c2nccc(-c3sc(-c4cccnc4)nc3C)n2)n1 | fulfilled |
| Cc1nc(-c2cccnc2)sc1-c1ccn(-c2cccc(Cl)n2)n1 | fulfilled |

Query compound follows.
Check the entry `Nc1cccc(-c2cnc(-c3cccnc3)s2)n1` : does chromatographic logP equal or exceed 2?
not fulfilled

====

# chromatographic logP per record follows
test-details: logP determination by HPLC (formic acid method)
Format: physicochemical
run-conditions: reversed-phase HPLC column (C18), pH 3.4, values printed in the text of the preparation examples; formic acid method; read-out: logP (HCOOH)
Give the figure by itself; no unit, no explanation.

| compound | chromatographic logP |
| --- | --- |
| Cc1nc(-c2cccnc2)sc1-n1ccc(-c2ncccn2)n1 | 1.48 |
| Cc1nc(-c2cccnc2)sc1-c1cc[nH]n1 | 1.31 |
| c1cnc(-c2nccc(-c3nnc(-c4cccnc4)s3)n2)nc1 | 1.07 |
| Cc1nc(-c2cccnc2)sc1-c1ccn(-c2cnccn2)n1 | 2.3 |
| c1cncc(-c2nncs2)c1 [3-[1,3,4]Thiadiazol-2-ylpyridine] | 0.15 |

Can you look up the measured chromatographic logP of `Cc1nc(-c2cccnc2)sc1Br` for me?
2.3

Can you look up the measured chromatographic logP of `CCOC(=O)C(=O)NNC(=O)c1cccnc1` for me?
-0.13

Can you look up the measured chromatographic logP of `c1cnc(-c2cccc(-c3nnc(-c4cccnc4)s3)n2)nc1` for me?
1.54

Can you look up the measured chromatographic logP of `CC(=O)c1sc(-c2cccnc2)nc1C` for me?
1.48

Can you look up the measured chromatographic logP of Cn1nc(-c2cccnc2)cc1-c1cc[nH]n1 [drawing 82] for me?
0.42

Can you look up the measured chromatographic logP of `Brc1cccc(C2=NOCCO2)n1` for me?
1.37

Can you look up the measured chromatographic logP of `CN(C)/C=C/C(=O)c1cc(-c2cccnc2)nn1C` for me?
0.6

Can you look up the measured chromatographic logP of `O=C(NO)c1cccc(Br)n1` for me?
0.69

Can you look up the measured chromatographic logP of `CN(C)/C=C/C(=O)c1nnc(-c2cccnc2)s1` for me?
1.05

Can you look up the measured chromatographic logP of `Cc1nc(-c2cccnc2)sc1-c1cccc(-c2ncccn2)n1` for me?
1.75

Can you look up the measured chromatographic logP of `Cc1nc(-c2cccnc2)sc1-c1cccc(C(N)=S)n1` for me?
2.13
